The following molecules are shown together with reported KINOMEscan: CDKL3 values.
# measured-on: panel of 442 kinases (Homo sapiens, UniProt Q8IVW4)
# Construct: purchased KINOMEscan
# Sequence (Q8IVW4 whole entry): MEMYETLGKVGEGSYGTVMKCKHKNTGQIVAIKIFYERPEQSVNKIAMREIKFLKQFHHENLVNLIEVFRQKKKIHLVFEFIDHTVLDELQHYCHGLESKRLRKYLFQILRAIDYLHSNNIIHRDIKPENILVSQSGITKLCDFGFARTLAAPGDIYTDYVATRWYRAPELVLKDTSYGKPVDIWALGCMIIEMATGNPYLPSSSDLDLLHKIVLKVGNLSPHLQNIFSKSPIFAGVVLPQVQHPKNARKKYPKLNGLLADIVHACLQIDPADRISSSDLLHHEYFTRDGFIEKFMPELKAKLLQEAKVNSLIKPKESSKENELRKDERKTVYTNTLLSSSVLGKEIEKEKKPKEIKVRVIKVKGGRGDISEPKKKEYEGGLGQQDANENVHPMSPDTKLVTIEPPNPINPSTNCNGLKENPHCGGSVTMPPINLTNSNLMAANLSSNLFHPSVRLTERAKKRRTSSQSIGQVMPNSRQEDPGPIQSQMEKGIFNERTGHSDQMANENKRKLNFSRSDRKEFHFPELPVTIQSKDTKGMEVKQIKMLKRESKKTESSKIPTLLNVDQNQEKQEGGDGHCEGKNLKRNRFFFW
# Assay type: binding
# experimental-setup: Compound Concentration 10 µM
measure-name: KINOMEscan: CDKL3

                         structure_notation  reported_result
0  COc1cc(C(=O)N2CCC(N3CCN(C)CC3)CC2)ccc1Nc1ncc2c(n1)N1CCc3cccc(c31)C(=O)N2C               81
1  COc1cc(C(=O)N2CCC(N3CCN(C)CC3)CC2)ccc1Nc1ncc2c(n1)N(C)c1ccccc1C(=O)N2C               83
2  CCOc1cc(C(=O)N2CCC(N3CCN(C)CC3)CC2)ccc1Nc1ncc2c(n1)N(C1CCCC1)c1ccccc1C(=O)N2C               99
3  COc1cc(C(=O)N2CCC(N3CCN(C)CC3)CC2)ccc1Nc1ncc2c(n1)N(C1CCCC1)c1ccccc1C(=O)N2C               73
